Consider the following compounds; for each one, report its inhibition.
target.or.system: Dual specificity protein phosphatase 6 (Homo sapiens)
experiment.description: DUSP6 inhibitors restoring Erk phosphorylation by chemical complementation, primary imaging in DUSP6-transfected HeLa (AID 609);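 on inhibition: phospho-Erk level distribution per well compared with pooled transfected vehicle control wells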
condition.set: HeLa MKP-3 transfected, phospho-Erk imaging KS statistic; at 10 µM; stronger effect = higher value; cells stimulated with TPA for 15 min
Answers are plain numbers, in %.

Here is how some compounds turned out for inhibition.
Cc1cc(=O)[nH]c(SCC(=O)c2ccccc2)c1C#N
13.4
O=C(NCCN1CCOCC1)c1cc2n(n1)C(C(F)(F)F)CC(c1ccc(F)cc1)N2 (configuration not stated)
7.48
O=C(O)CC(NC(=O)COc1ccc(Cl)cc1Cl)C(=O)O (configuration not stated)
-9.66
Fc1cc(F)c(F)c(SCCc2ccncc2)c1F
-7.28
CCCCNc1cc(C(=O)O)cc(S(N)(=O)=O)c1Oc1ccccc1
15.3
CCN1CC=C2C(C#N)=C(N)C(C#N)(C#N)[C@H](c3cccc(OC)c3OC)[C@H]2C1
-3.95
CCOC(=O)C1CCN(C(C)=C2C(=O)c3ccccc3C2=O)CC1
7.73
CCSc1nc(O)c(C2OC(=O)c3c2ccc(OC)c3OC)c(=O)n1-c1ccccc1 (configuration not stated)
1.98
CCCCC1(C(=O)OCC)CC(CN2CCOCC2)OC1=O (configuration not stated)
-8.95
O=C(O)Cc1ccc(-c2ccccc2)cc1
19

For every item in the list below, what is its measured inhibition?
1. Cn1c(=O)c2[nH]cnc2n(C)c1=O
2. CC[C@H]1OC(=O)C[C@@H](O)[C@H](C)[C@@H](O[C@@H]2O[C@H](C)C[C@H](N(C)C)[C@H]2O)[C@@H](CC=O)C[C@@H](C)C(=O)C=C[C@]2(C)O[C@H]2[C@@H]1C
3. OC(CCN1CCCC1)(c1ccccc1)C1CCCCC1 (configuration not stated)
4. Cc1nc2sc3c(NCc4ccco4)ncnc3c2c2c1COC(C)(C)C2
5. CCOC(=O)CC(C#N)c1cn(C)c2ccccc12 (configuration not stated)
6. CCOC(=O)c1c(C)[nH]c(/C(C)=N/O)c1C
7. CCOC(=O)CC1=C(C(=O)OCC)C(c2ccc(OC)c(OC)c2)C(C#N)=C(N)O1 (configuration not stated)
8. COCCCNC(=O)C(C#N)c1nc2ccccc2nc1N1CCCC1 (configuration not stated)

1. 19
2. 7.39
3. 19.2
4. -2.69
5. -7.28
6. 1.12
7. 4.25
8. 7.83

---

experiment.description: DUSP6 inhibitors restoring Erk phosphorylation by chemical complementation, primary imaging in DUSP6-transfected HeLa (AID 609)
condition.set: HeLa MKP-3 transfected, phospho-Erk imaging KS statistic; measured here: cell density z-score; at 10 µM; cells stimulated with TPA for 15 min
Consider the following compounds; for each one, report its z-score.
Numbers only.

Here is how some compounds turned out for z-score.
O=C(CCNNC(=O)c1ccncc1)NCc1ccccc1
-1.05
c1ccc(-c2nn3c(C4CCCCC4)nnc3s2)cc1
-0.66
CC(=O)C(=[N+]=[N-])C(=O)NCc1ccccc1
0.378
COc1cccc(OC)c1C(=O)N1CCN(S(=O)(=O)c2ccc(C)cc2)CC1
-0.228
C=CCNc1nc(-c2ccc(O)c(C(N)=O)c2)cs1
1.4
COC(=O)c1[nH]c2cc(OC)ccc2c1NC(=O)CN1CCC(C(N)=O)CC1
0.612
Fc1ccc2[nH]c3c(N4CCN(Cc5ccc6c(c5)OCO6)CC4)ncnc3c2c1
0.499
N#CCSc1nc2sc3c(c2c(=O)n1C1CCCCC1)CCCC3
-0.927

For every item in the list below, what is its measured z-score?
1. COc1cccc(-c2nnc3sc(-c4cccs4)nn23)c1
2. CN1CCN2c3ccccc3Cc3ccccc3C2C1 (centres undefined)
3. Cc1c(-c2cccs2)[n+](=O)c2c(n1[O-])CCCC2
4. Cc1nc(NS(=O)(=O)c2ccccc2)sc1NC(=O)OCCN(C)C
5. CC1(C)CC(N(Cc2ccco2)C(=O)Cc2ccccc2)CCO1 (centres undefined)
6. Cc1nn(C)cc1C1C2=C(CC(C)(C)CC2=O)OC2=C1C(=O)CC(C)(C)C2
7. CCCC1Cc2c(sc3ncnc(N)c23)CO1 (centres undefined)
8. Fc1ccc(OCCOCCNCC2CCCO2)cc1 (centres undefined)

1. -0.757
2. -0.186
3. 1.59
4. 1.66
5. -0.358
6. 0.812
7. -0.574
8. 0.189

For every item in the list below, what is its measured z-score?
1. COc1cccc(/C(O)=C2/C(=O)C(=O)N(CCN(C)C)C2c2ccc(Br)cc2)c1 (centres undefined)
2. C=CCOc1nc2c(c(=O)n(C)c(=O)n2C)n1Cc1ccccc1Cl
3. COc1cc(C2C(C#N)=C(N)Oc3cc(C)n(CCN4CCOCC4)c(=O)c32)cc(OC)c1OC (centres undefined)
4. Cc1ccc(C#N)c(SCc2cc3c(cc2Cl)OCO3)n1
5. Cn1c(=O)c2c3c(sc2n2c(SCc4ccccc4)nnc12)CCCC3
6. O=C(CC(c1ccccc1)c1ccco1)N1CCOCC1 (centres undefined)

[0.101, -1.51, -0.238, -0.24, -0.0166, -0.599]

For every item in the list below, what is its measured z-score?
1. CCCCCCSC1=C(C#N)C(c2ccccc2)CC(=O)N1 (centres undefined)
2. CC(=O)N=C(N)Sc1nc2ccccc2[nH]1

1: 0.751; 2: -0.578

src = PubChem BioAssay
